Origin of values: patent US20240139125A1

# assay-protocol: Cell viability for BIA and analogues, DU145 cell line
# Type: cell-based
# run-parameters: human; DU145, 10 uM
With a cut-off of 80%, any viability at 10 µM strictly below it is called T; any viability at 10 µM meeting it or above is called F.

// query Does the reported viability at 10 µM of COc1cc(N)c(C(=O)/C=C/c2cccc(C#N)c2)cc1OC stay below 80%?
// result F

// query Does the reported viability at 10 µM of Nc1ccccc1C(=O)/C=C/c1ccc2ccccc2c1 stay below 80%?
// result F

// query Does the reported viability at 10 µM of Nc1ccccc1C(=O)/C=C/c1cccc(C(F)(F)F)c1 stay below 80%?
// result T

// query Does the reported viability at 10 µM of CCOc1cc(F)ccc1/C=C/C(=O)c1ccccc1N stay below 80%?
// result F

// query Does the reported viability at 10 µM of Nc1ccccc1C(=O)/C=C/c1cccnc1 stay below 80%?
// result F

// query Does the reported viability at 10 µM of CNC(=O)c1cccc(/C=C/C(=O)c2ccccc2N)c1 stay below 80%?
// result T

// query Does the reported viability at 10 µM of N#Cc1cccc(/C=C/C(=O)c2ccccc2N)c1 stay below 80%?
// result T

----------
# assay-protocol: Cell viability for BIA and analogues, DU145 cell line
# Assay type: cell-based
# run-parameters: human; DU145, 20 uM
Structures can show the parent of a compound that is named as a salt.
Would you mind telling me the reported viability at 20 µM of each entry?
Only the number, expressed in %, is required.

// query Return reported viability at 20 µM; argument: Nc1ccccc1C(=O)/C=C/c1cccc(C(F)(F)F)c1
// result 33.1

// query Return reported viability at 20 µM; argument: COc1cc(N)c(C(=O)/C=C/c2cc(O)cc(Br)c2)cc1OC
// result 81.8

// query Return reported viability at 20 µM; argument: Nc1ccccc1C(=O)/C=C/c1cccc(Br)c1
// result 71.2

// query Return reported viability at 20 µM; argument: Nc1ccccc1C(=O)/C=C/c1ccc([N+](=O)[O-])cc1
// result 35.2

// query Return reported viability at 20 µM; argument: Cc1ccc(/C=C/C(=O)c2ccccc2N)cc1
// result 36.1

// query Return reported viability at 20 µM; argument: Nc1ccccc1-c1cc(-c2cccc(C(F)(F)F)c2)ncn1
// result 87.8

// query Return reported viability at 20 µM; argument: Nc1ccccc1C(=O)/C=C/c1ccc2ccccc2c1
// result 79.4

// query Return reported viability at 20 µM; argument: CCOc1ccc([N+](=O)[O-])cc1C(O)CC(=O)c1ccccc1N (centres unmarked)
// result 29.1

// query Return reported viability at 20 µM; argument: Nc1cccc(/C=C/C(=O)c2ccccc2N)c1 [GM-90315, Hydrochloride]
// result 97.9

// query Return reported viability at 20 µM; argument: CNC(=O)c1cccc(/C=C/C(=O)c2ccccc2N)c1
// result 58.5

// query Return reported viability at 20 µM; argument: CCOc1ccc([N+](=O)[O-])cc1/C=C/C(=O)c1ccccc1N
// result 40.5

// query Return reported viability at 20 µM; argument: N/C(=N\O)c1cccc(/C=C/C(=O)c2ccccc2N)c1
// result 31.9

// query Return reported viability at 20 µM; argument: COc1cc(N)c(C(=O)/C=C/c2cccc([N+](=O)[O-])c2)cc1OC
// result 31.5

// query Return reported viability at 20 µM; argument: Nc1ccccc1C(=O)/C=C/c1ccncc1
// result 37.8

// query Return reported viability at 20 µM; argument: Nc1ccccc1C(=O)/C=C/c1ccc(OC(F)(F)F)cc1
// result 31.3

// query Return reported viability at 20 µM; argument: Cc1cccc(/C=C/C(=O)c2ccccc2N)c1
// result 81

// query Return reported viability at 20 µM; argument: CC(C)(C)c1ccc(/C=C/C(=O)c2ccccc2N)cc1
// result 28.2

// query Return reported viability at 20 µM; argument: Nc1ccc(F)cc1C(=O)/C=C/c1cccc([N+](=O)[O-])c1
// result 62.3

// query Return reported viability at 20 µM; argument: COc1ccc(C(=O)/C=C/c2cccc([N+](=O)[O-])c2)c(N)c1
// result 87.2

// query Return reported viability at 20 µM; argument: Nc1ccccc1C(=O)/C=C/c1cccc([N+](=O)[O-])c1
// result 90.2

// query Return reported viability at 20 µM; argument: O=C(/C=C/c1cccc([N+](=O)[O-])c1)c1ccccc1
// result 72.2

// query Return reported viability at 20 µM; argument: Nc1ccccc1C(=O)/C=C/c1ccc(C(F)(F)F)cc1
// result 46.8

// query Return reported viability at 20 µM; argument: CCOc1cc(F)ccc1/C=C/C(=O)c1ccccc1N
// result 90

// query Return reported viability at 20 µM; argument: COc1cccc(/C=C/C(=O)c2ccccc2N)c1
// result 74

// query Return reported viability at 20 µM; argument: Nc1ccccc1C(=O)/C=C/c1cccnc1
// result 82.8

// query Return reported viability at 20 µM; argument: COc1cc(N)c(C(=O)/C=C/c2cccc(Br)c2)cc1OC
// result 70.2

// query Return reported viability at 20 µM; argument: COc1cc(N)c(C(=O)/C=C/c2cccc(C(F)(F)F)c2)cc1OC
// result 89.1

// query Return reported viability at 20 µM; argument: Nc1ccccc1C(=O)/C=C/c1cc(O)cc(Br)c1
// result 76.4

// query Return reported viability at 20 µM; argument: COc1cc(N)c(C(=O)/C=C/c2cccc(C#N)c2)cc1OC
// result 88.1

// query Return reported viability at 20 µM; argument: O=C(/C=C/c1cccc([N+](=O)[O-])c1)c1ccccc1O
// result 87.3

// query Return reported viability at 20 µM; argument: CCOc1cccc(/C=C/C(=O)c2ccccc2N)c1
// result 86.7

// query Return reported viability at 20 µM; argument: COc1cccc(/C=C/C(=O)c2cc(OC)c(OC)cc2N)c1
// result 60.2

// query Return reported viability at 20 µM; argument: Nc1ccccc1C(=O)/C=C/c1ccccc1
// result 79.4

// query Return reported viability at 20 µM; argument: Nc1ccccc1C(=O)/C=C/c1cccc(C(=O)O)c1
// result 82.3

// query Return reported viability at 20 µM; argument: N#Cc1cccc(/C=C/C(=O)c2ccccc2N)c1
// result 53.4

// query Return reported viability at 20 µM; argument: CC(C)(C)OC(=O)Nc1cccc(/C=C/C(=O)c2ccccc2N)c1
// result 59

// query Return reported viability at 20 µM; argument: Nc1ccccc1C(=O)/C=C/c1cccc(Cl)c1
// result 28.1

// query Return reported viability at 20 µM; argument: COc1ccccc1C(=O)/C=C/c1cccc([N+](=O)[O-])c1
// result 25.4

// query Return reported viability at 20 µM; argument: Nc1ccccc1C(=O)/C=C/c1cc(F)c(O)c(F)c1
// result 60

// query Return reported viability at 20 µM; argument: Nc1ccccc1C(=O)/C=C/c1ccc(F)cc1F
// result 26.3

// query Return reported viability at 20 µM; argument: Nc1ccccc1-c1cc(-c2cccc(C(F)(F)F)c2)on1
// result 89.3

----------
# assay-protocol: Cell viability for BIA and analogues, HT1080 cell line
# Format: cell-based
# run-parameters: human, HT1080 fibrosarcoma cells, HT1080, 5 uM
With a cut-off of 20%, any viability at 5 µM strictly below it is called t; any viability at 5 µM meeting it or above is called f.

// query Does the reported viability at 5 µM of CCOc1cccc(/C=C/C(=O)c2ccccc2N)c1 stay below 20%?
// result f

// query Does the reported viability at 5 µM of Nc1ccccc1C(=O)/C=C/c1ccc([N+](=O)[O-])cc1 stay below 20%?
// result f

// query Does the reported viability at 5 µM of N#Cc1cccc(/C=C/C(=O)c2ccccc2N)c1 stay below 20%?
// result t

// query Does the reported viability at 5 µM of Nc1ccccc1C(=O)/C=C/c1cccc(C(F)(F)F)c1 stay below 20%?
// result t

// query Does the reported viability at 5 µM of COc1cccc(/C=C/C(=O)c2cc(OC)c(OC)cc2N)c1 stay below 20%?
// result f

// query Does the reported viability at 5 µM of CCOc1cc(F)ccc1/C=C/C(=O)c1ccccc1N stay below 20%?
// result f

// query Does the reported viability at 5 µM of Nc1ccccc1-c1cc(-c2cccc(C(F)(F)F)c2)on1 stay below 20%?
// result f

// query Does the reported viability at 5 µM of Nc1ccc(F)cc1C(=O)/C=C/c1cccc([N+](=O)[O-])c1 stay below 20%?
// result f

// query Does the reported viability at 5 µM of Nc1ccccc1C(=O)/C=C/c1cccc(F)c1 stay below 20%?
// result f

// query Does the reported viability at 5 µM of CC(C)(C)OC(=O)Nc1cccc(/C=C/C(=O)c2ccccc2N)c1 stay below 20%?
// result f
